Data provenance: paper PMC11012064

Test: Cytotoxic effect on macrophages, resazurin
Assay type: cell-based, murine
Conditions: mouse, J774A.1 macrophages; J774A.1 murine macrophages, 20 h + 4 h resazurin; confidence interval (Probit) in parentheses; triplicate; read-out: Macrophages J774 CC50
Protocol: The microplate was incubated at 37 °C with 5% CO2 and humidity for 24 h to allow for the formation of a cell monolayer with a confluence of 80%. Subsequently, a concentration–response evaluation was carried out. […] As mentioned above, the microplate was read via a fluorometer at 544 nm excitation and 590 nm emission. Each treated well was compared to the negative cytotoxicity control and the data were expressed as a percentage of metabolic inhibition. […]
Overview of recorded CC50 for various molecules
Give the value in mg/L but do not write mg/L after it.

Known CC50 results, listed for orientation:
CCCCCOc1ccc(C2=NCCN2)cc1 | 71.3
CC1CS(=O)(=O)CCN1/N=C/c1ccc([N+](=O)[O-])o1 (centres unmarked) [Nfx, nifurtimox, reference compound] | 57.8
CCCCCCCCCOc1ccc(-c2ncc[nH]2)cc1 | 31.3
C[C@@H]1[C@H](O)[C@@H](C)/C=C/C=C/C=C/C=C/C=C/C=C/C=C/[C@H](O[C@@H]2O[C@H](C)[C@@H](O)[C@H](N)[C@@H]2O)C[C@@H]2O[C@](O)(C[C@@H](O)C[C@@H](O)[C@H](O)CC[C@@H](O)C[C@@H](O)CC(=O)O[C@H]1C)C[C@H](O)[C@H]2C(=O)O [AmB, amphotericin, reference compound] | 48.1
CCCCCCOc1ccc(C2=NCCN2)cc1 | 29.2
CCCCCCCCOc1ccc(-c2ncc[nH]2)cc1 | 40.2
CCCCCCCOc1ccc(C2=NCCN2)cc1 | 21.5
O=C(Cn1ccnc1[N+](=O)[O-])NCc1ccccc1 [Bnz, benznidazole, reference compound] | 91.6

Record request: CC50 value, item CCCCCCCCCOc1ccc(C2=NCCN2)cc1 50.6

Reported CC50 for CCCCCCCCOc1ccc(C2=NCCN2)cc1 : what is it? 9.72

Which measured CC50 value corresponds to CCCCCCOc1ccc(-c2ncc[nH]2)cc1 ? 85.7

---

Measured SI (CC50/IC50) L. mexicana of individual entries
test system: L. mexicana promastigotes; test: Metabolic inhibition of Leishmania mexicana promastigotes, fluorometric analysis with resazurin; assay type: cell-based; conditions: CC50 macrophages J774 / IC50 L. mexicana promastigotes

# annotated cases, reported SI (CC50/IC50) L. mexicana shown
CCCCCCCOc1ccc(C2=NCCN2)cc1 [compound 29, 8-Hepthyloxyphenyl-2-imidazoline] | 106.21
CCCCOc1ccc(C2=NCCN2)cc1 [compound 26] | >37.98
CCCCCCCCOc1ccc(C2=NCCN2)cc1 [compound 30] | 48.11
CCCCCCOc1ccc(C2=NCCN2)cc1 [compound 28, 8-Hexyloxypheny-2-imidazoline] | 166.31
CCCCCCCCOc1ccc(-c2ncc[nH]2)cc1 [compound 35, 8-Octyloxyphenyl-2-imidazole] | 14.92
CCCCCCCCCOc1ccc(-c2ncc[nH]2)cc1 [compound 36, 8-Nonyloxyphenyl-2-imidazole] | 28.53
CCCCCCCCCOc1ccc(C2=NCCN2)cc1 [compound 31] | 92.56
CCOc1ccc(C2=NCCN2)cc1 [compound 23] | >13.12
COc1ccc(C2=NCCN2)cc1 [compound 22] | >6.23
C[C@@H]1[C@H](O)[C@@H](C)/C=C/C=C/C=C/C=C/C=C/C=C/C=C/[C@H](O[C@@H]2O[C@H](C)[C@@H](O)[C@H](N)[C@@H]2O)C[C@@H]2O[C@](O)(C[C@@H](O)C[C@@H](O)[C@H](O)CC[C@@H](O)C[C@@H](O)CC(=O)O[C@H]1C)C[C@H](O)[C@H]2C(=O)O [AmB, amphotericin, reference compound] | 253.26

Item: CCCCCOc1ccc(C2=NCCN2)cc1 [compound 27, 8-Penthyloxyphenil-2-imidazoline] Test system: L. mexicana promastigotes Read-out: SI (CC50/IC50) L. mexicana Value: ? 88.28

Kindly state the measured SI (CC50/IC50) L. mexicana obtained for CCCCCCOc1ccc(-c2ncc[nH]2)cc1 [compound 33, 8-Hexyloxyphenyl-2-imidazole] with L. mexicana promastigotes. 25.21
